Values from patent US8367687B2

Target: CDK4 (Homo sapiens)
Sequence (P11802 whole entry): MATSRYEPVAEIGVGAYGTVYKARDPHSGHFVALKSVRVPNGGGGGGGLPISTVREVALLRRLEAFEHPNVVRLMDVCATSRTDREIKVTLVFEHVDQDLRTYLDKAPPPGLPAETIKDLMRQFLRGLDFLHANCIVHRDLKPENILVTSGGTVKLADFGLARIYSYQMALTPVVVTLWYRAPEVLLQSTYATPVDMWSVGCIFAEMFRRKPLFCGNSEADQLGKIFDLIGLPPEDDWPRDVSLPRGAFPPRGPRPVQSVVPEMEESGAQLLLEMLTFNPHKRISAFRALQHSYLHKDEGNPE
Sequence (P24385 whole entry partner): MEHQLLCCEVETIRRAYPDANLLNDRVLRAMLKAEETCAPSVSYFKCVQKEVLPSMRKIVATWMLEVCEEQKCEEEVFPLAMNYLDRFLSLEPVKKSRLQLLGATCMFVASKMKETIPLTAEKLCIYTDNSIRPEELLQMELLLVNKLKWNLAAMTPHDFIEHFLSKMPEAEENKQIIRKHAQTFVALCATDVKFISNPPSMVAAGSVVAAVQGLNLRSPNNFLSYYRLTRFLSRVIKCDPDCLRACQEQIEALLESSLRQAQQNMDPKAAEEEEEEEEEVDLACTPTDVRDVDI
Test: CDK4 HTRF
Format: biochemical
Conditions: Table 1; read-out: CDK4 HTRF
pIC50: −log10 of the molar value.
Listing of recorded pIC50 by entry.
ENDPOINT_NAME: pIC50

[[record]]
chem_smiles = "CC(C)c1[nH]ncc1-c1ccnc(NCCN2CCCCC2)c1"
reported_value = "> 5.30"

[[record]]
chem_smiles = "CC(C)c1[nH]ncc1-c1ccnc(NCCCNC2CCCCC2)c1"
reported_value = "> 5.30"

[[record]]
chem_smiles = "CC(C)c1[nH]ncc1-c1ccnc(NC2CCCCC2)c1"
reported_value = "> 6.30"

[[record]]
chem_smiles = "CC(C)c1[nH]ncc1-c1ccnc(NCCCCN2CCCC2)c1"
reported_value = "> 5.30"

[[record]]
chem_smiles = "CC(C)c1[nH]ncc1-c1ccnc(NCc2ccco2)c1"
reported_value = "> 6.00"


---

Target: CDK4 (Homo sapiens)
Experiment: CDK4 HTRF
Format: biochemical
Details: Table 2; read-out: CDK4 HTRF/ IC50
ENDPOINT_NAME: IC50

[[record]]
compound = "Cc1nnc(CCNc2nccc(-c3c[nH]nc3C(C)C)n2)[nH]1 [Example 161]"
study_target = "CDK4 (Homo sapiens)"
reported_value = "< 500 nM"

[[record]]
compound = "Cc1n[nH]cc1-c1ccnc(NCC2CCCO2)n1 (centres unmarked) [Example 88]"
study_target = "CDK4 (Homo sapiens)"
reported_value = "< 15000 nM"

[[record]]
compound = "CC(CN(C)C)Nc1nccc(-c2c[nH]nc2C(C)C)n1 (centres unmarked) [Example 143]"
study_target = "CDK4 (Homo sapiens)"
reported_value = "< 500 nM"

[[record]]
compound = "CC(C)c1n[nH]cc1-c1ccnc(N[C@H](C)c2ccccn2)n1 [Example 187]"
study_target = "CDK4 (Homo sapiens)"
reported_value = "< 100 nM"

[[record]]
compound = "CC(C)c1n[nH]cc1-c1ccnc(N[C@@H](C)c2ccccc2)n1 [Example 182]"
study_target = "CDK4 (Homo sapiens)"
reported_value = "< 10000 nM"

[[record]]
compound = "CC(C)c1n[nH]c(Br)c1-c1ccnc(NC2CCN(C)CC2)n1 [Example 179]"
study_target = "CDK4 (Homo sapiens)"
reported_value = "< 100 nM"

[[record]]
compound = "Cc1n[nH]cc1-c1ccnc(NC2CCN(c3ccccc3)CC2)n1 [Example 136]"
study_target = "CDK4 (Homo sapiens)"
reported_value = "< 500 nM"

[[record]]
compound = "CC(C)c1n[nH]cc1-c1ccnc(NC2CCCc3cccnc32)n1 (centres unmarked) [Example 186]"
study_target = "CDK4 (Homo sapiens)"
reported_value = "< 500 nM"


---

Molecular target: hCDK1/B (Homo sapiens)
Sequence (P06493 whole entry): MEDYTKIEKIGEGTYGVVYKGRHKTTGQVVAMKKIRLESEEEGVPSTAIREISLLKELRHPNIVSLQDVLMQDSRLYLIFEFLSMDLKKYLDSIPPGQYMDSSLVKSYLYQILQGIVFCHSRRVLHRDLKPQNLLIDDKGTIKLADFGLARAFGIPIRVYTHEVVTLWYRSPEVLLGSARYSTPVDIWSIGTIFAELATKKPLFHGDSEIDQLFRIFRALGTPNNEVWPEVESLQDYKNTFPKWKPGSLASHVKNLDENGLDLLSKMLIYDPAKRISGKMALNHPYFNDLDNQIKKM
Sequence (P14635 whole entry partner): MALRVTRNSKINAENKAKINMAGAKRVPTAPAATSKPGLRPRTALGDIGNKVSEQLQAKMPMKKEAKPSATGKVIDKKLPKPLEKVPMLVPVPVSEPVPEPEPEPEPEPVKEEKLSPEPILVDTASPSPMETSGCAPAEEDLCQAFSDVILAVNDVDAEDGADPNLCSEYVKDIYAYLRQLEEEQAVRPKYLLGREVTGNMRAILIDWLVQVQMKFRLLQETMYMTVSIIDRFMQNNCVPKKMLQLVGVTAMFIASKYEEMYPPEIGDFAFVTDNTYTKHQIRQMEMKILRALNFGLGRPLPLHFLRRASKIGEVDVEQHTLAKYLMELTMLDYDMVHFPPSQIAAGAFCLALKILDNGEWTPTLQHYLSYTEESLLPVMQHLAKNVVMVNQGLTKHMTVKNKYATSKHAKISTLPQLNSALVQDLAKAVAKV
Assay: hCDK1/B
Format: biochemical
Conditions: Table 2
ENDPOINT_NAME: IC50

[[record]]
compound = "Cc1n[nH]cc1-c1ccnc(NCc2cccnc2)n1"
endpoint_name = "IC50"
reported_value = "< 15 µM"

[[record]]
compound = "CCCCNc1nccc(-c2c[nH]nc2C)n1"
endpoint_name = "IC50"
reported_value = "< 10 µM"

[[record]]
compound = "Cc1n[nH]cc1-c1ccnc(NCCc2c[nH]c3ccccc23)n1"
endpoint_name = "IC50"
reported_value = "< 5 µM"

[[record]]
compound = "CC(C)c1n[nH]cc1-c1ccnc(NCCN2CCCCC2)n1"
endpoint_name = "IC50"
reported_value = "< 15 µM"

[[record]]
compound = "CC(C)c1n[nH]cc1-c1ccnc(N[C@@H](C)c2ccccc2)n1"
endpoint_name = "IC50"
reported_value = "< 5 µM"

[[record]]
compound = "COc1ccccc1CNc1nccc(-c2c[nH]nc2C)n1"
endpoint_name = "IC50"
reported_value = "< 10 µM"

[[record]]
compound = "Cc1nnc(C(C)Nc2nccc(-c3c[nH]nc3C(C)C)n2)[nH]1 (stereo not shown)"
endpoint_name = "IC50"
reported_value = "< 10 µM"

[[record]]
compound = "Cc1n[nH]cc1-c1ccnc(NCC(=O)OC(C)(C)C)n1"
endpoint_name = "IC50"
reported_value = "≥ 15 µM"

[[record]]
compound = "Cc1n[nH]cc1-c1ccnc(NCc2ccco2)n1"
endpoint_name = "IC50"
reported_value = "≥ 15 µM"

[[record]]
compound = "Cc1n[nH]cc1-c1ccnc(NCc2ccccc2)n1"
endpoint_name = "IC50"
reported_value = "< 10 µM"

[[record]]
compound = "CC(C)c1n[nH]cc1-c1ccnc(NCc2ccc(N(C)C)cc2)n1"
endpoint_name = "IC50"
reported_value = "< 5 µM"

[[record]]
compound = "Cc1n[nH]cc1-c1ccnc(NCCN2CCCC2)n1"
endpoint_name = "IC50"
reported_value = "≥ 15 µM"

[[record]]
compound = "CC(C)c1n[nH]cc1-c1ccnc(NC2CCNCC2)n1"
endpoint_name = "IC50"
reported_value = "< 0.5 µM"

[[record]]
compound = "Cc1n[nH]cc1-c1ccnc(NC2CCc3ccccc32)n1 (stereo not shown)"
endpoint_name = "IC50"
reported_value = "< 10 µM"

[[record]]
compound = "CC(C)c1n[nH]cc1-c1ccnc(NC2CN3CCC2CC3)n1 (stereo not shown)"
endpoint_name = "IC50"
reported_value = "< 0.5 µM"

[[record]]
compound = "CC(C)c1n[nH]cc1-c1ccnc(NCCN(C(C)C)C(C)C)n1"
endpoint_name = "IC50"
reported_value = "< 5 µM"

